Give measured phosphorylation enrichment for each item. Keep answers brief.
biological target: FGFR1 (UniProt P11362); assay: phosphorylation enrichment, bacterial display (enrichment ratio); higher = better substrate or ligand; peptides without Tyr show the background;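 further: 11-residue human phosphosite peptides and single-mutation variants displayed on the E. coli surface, counted by deep sequencing, each peptide's frequency after selection divided by its frequency in the unselected input library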;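 further: frequency after pTyr selection over input frequency; kinase dosed for 20-30% of maximal phosphorylation in three min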
Sequence (P11362 whole entry, looked up): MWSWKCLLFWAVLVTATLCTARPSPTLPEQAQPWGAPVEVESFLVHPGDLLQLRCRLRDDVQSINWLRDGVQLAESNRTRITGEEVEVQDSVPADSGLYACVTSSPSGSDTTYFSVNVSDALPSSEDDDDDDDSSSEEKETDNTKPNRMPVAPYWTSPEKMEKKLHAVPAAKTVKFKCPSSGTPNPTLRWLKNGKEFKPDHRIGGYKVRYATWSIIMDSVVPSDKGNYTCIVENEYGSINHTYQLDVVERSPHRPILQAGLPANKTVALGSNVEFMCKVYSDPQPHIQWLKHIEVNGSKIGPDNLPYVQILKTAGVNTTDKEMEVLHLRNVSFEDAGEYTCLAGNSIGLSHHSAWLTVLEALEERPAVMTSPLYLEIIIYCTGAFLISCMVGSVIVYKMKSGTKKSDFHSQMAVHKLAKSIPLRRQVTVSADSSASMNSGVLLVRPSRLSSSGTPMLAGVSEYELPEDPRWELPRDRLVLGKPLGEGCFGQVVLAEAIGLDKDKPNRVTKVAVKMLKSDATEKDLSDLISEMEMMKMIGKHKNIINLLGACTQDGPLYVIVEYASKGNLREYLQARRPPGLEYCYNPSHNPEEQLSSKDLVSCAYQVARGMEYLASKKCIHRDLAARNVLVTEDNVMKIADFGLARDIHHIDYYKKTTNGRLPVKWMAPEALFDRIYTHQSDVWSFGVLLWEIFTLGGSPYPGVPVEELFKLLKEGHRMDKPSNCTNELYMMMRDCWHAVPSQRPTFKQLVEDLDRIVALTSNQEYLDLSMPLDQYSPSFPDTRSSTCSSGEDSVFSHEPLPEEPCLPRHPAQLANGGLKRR
Answer with the value's number alone.

Any idea what its phosphorylation enrichment is? The sequence is KPGVNYYFRVS
0.623

Query SQQTYCRVSNM [ABCD1_Y181_Y181C] next
0.587

Try RSSGSYGGGGQ [HNRNPA1_Y341_P340S] next.
0.536

Moving on to VTSLKYSTSPY [BRIP1_Y916]
0.487

Quick one: LDYNEYFRYLN [HPRT1_Y198_D201Y]
3.33

What about GKFFQYDTWNQ [IGF2_Y116_K120N] ?
0.643

Please give the result for DVMDLYKTLRG [NR3C1_Y30_F29L] too.
0.585

Data provenance is the supplement of paper PMC10065799.
